System: DU-145 prostate
Assay: NCI tumour cell line growth inhibition, 48 h
Measured TGI, listed per entry for reference.
endpointName: TGI

> print(dat)
                                    molecule   reading
 1  CN1CCN(Cc2ccc(NC(=O)c3cncc(C#Cc4ccc(N)nc4)c3)cc2C(F)(F)F)CC1   6.71 µM
 2  [N-]=[N+]=C(C(=O)CN1CCCC1=O)S(=O)(=O)c1ccccc1  > 100 µM
 3  CN1C(=O)N(C)C2C1NC(=S)N2/N=C/C=C/c1ccccc1[N+](=O)[O-] (stereo not given)  > 100 µM
 4          CN(C(=O)C(C)(C)C)c1ccccc1I(=O)=O  > 100 µM
 5  CCN1CCN(c2ccc(NC(=O)Nc3nc4ccc(-c5ccccc5OC)cc4s3)cc2)CC1   3.26 µM
 6  CCC(=O)NC1=C(Cl)C(=O)C(NC(=O)CC)=C(Cl)C1=O   22.3 µM
 7  Nc1nc(-c2ccc3c(c2)/C(=C\c2cc(Br)c(O)c(Br)c2)C(=O)N3)cs1   > 25 µM
 8  N=C1C=CC(=C(c2ccc(N)cc2)c2ccc(N)cc2)C=C1   17.7 µM
 9  C1=CC2C(C3CN(c4ccccc4)N=C13)C1C3C4C=CC21C=CC43 (stereo not given)  > 100 µM
10  C[C@]12CCC(=O)C=C1C[C@@H](O)[C@@H]1[C@@H]2CC[C@@]2(C)[C@H]1CC[C@]2(C)O  > 100 µM
11  CC(=O)OC1CC2(C)C(=CC1C1SCCS1)CCC1C2CCC2(C)C(OC(C)=O)CCC12 (stereo not given)  > 100 µM
12  Cc1nnc(N/N=C/c2ccc([N+](=O)[O-])o2)[nH]c1=O  > 100 µM
13            O=C(CCCCCNC(=O)c1ccc(Cl)cc1)NO  > 100 µM
14  N#Cc1ccc(-c2ccc(Cl)cc2)n(C2OC(CO)C(O)C(O)C2O)c1=S (stereo not given)  > 100 µM
15  CCN1CCN(C(=O)[C@]23CC[C@@H](C)[C@H](C)[C@@H]2C2=CC[C@@H]4[C@@]5(C)CCC(=O)C(C)(C)[C@@H]5CC[C@@]4(C)[C@]2(C)CC3)CC1   5.62 µM
16  COc1ccc(/C(=N/O)c2ccccc2C2=Nc3ccccc3C(NCc3ccccc3)O2)cc1C (stereo not given)  > 100 µM
17  O=C(CSc1nc2ccc(I)cc2c(=O)n1Cc1ccccc1)Nc1ccccc1  > 100 µM
18            N=C(N)SCc1nc(-c2ccc(Cl)cc2)no1     63 µM
19  O=C1/C=C/[C@@H](O)[C@@H]2C[C@@H](O)C[C@H]2/C=C/CCC[C@H](CCO)O1  > 100 µM
20           OCc1ccc2c(c1)CC1(Cc3ccccc3C1)C2  > 100 µM

----------
Measured log10(TGI), listed per entry for reference.
Tested on: SF-539 CNS
Assay: NCI tumour cell line growth inhibition, 48 h
endpointName: log10(TGI) (log10 of the value in µM)

> print(dat)
                                   compound  endpointname  reading
1  Cc1cc(N(CCC#N)S(=O)(=O)c2ccccc2)ccc1C=Nc1ccc(C(=O)O)cc1    log10(TGI)     1.49
2  Cc1cc(N(CCC#N)CCC#N)ccc1/C(N=Nc1ccc(C(=O)O)cc1)=N\NC(=O)c1ccccc1    log10(TGI)     1.76
3  COc1cc2[nH]c3c(c2cc1OC)CCN[C@@]31CC[C@@]2(CC3c4c(cc(OC)c(O)c42)CCN3C)C[C@@H]1OC (stereo partly specified)    log10(TGI)     1.45
4  CC1=C(CCC(C)CO)O[C@H]2C[C@H]3[C@@H]4CC[C@H]5C[C@@H](O)CC[C@]5(C)[C@H]4CC(=O)[C@]3(C)[C@@H]12 (stereo partly specified)    log10(TGI)     1.86
5  O=C(Nc1nc2c(C(F)(F)F)cccc2s1)c1cc(Cl)ccc1O    log10(TGI)     0.29
6                   CCCCCCCCCCCCCCNCC(OC)OC    log10(TGI)     1.49
7  COc1cc2c(cc1OC)C(Cl)C(c1ccc(Br)cc1)=C2Cl (stereo unspecified)    log10(TGI)     1.42

----------
Tested on: UACC-62 melanoma
Assay: NCI tumour cell line growth inhibition, 48 h
endpointName: TGI

> print(dat)
                                    compound  experimentalsystem  endpointname   reading
 1  O=C1CCC2(O)c3ccccc3C2Cc2ccccc21 (configuration not stated)    UACC-62 melanoma           TGI  > 100 µM
 2  O=c1c(O)c(-c2ccccc2)oc2c(CP(=O)(O)O)cccc12    UACC-62 melanoma           TGI  > 100 µM
 3  C=C1c2c(n(S(=O)(=O)c3ccccc3)c3ccccc23)[C@@]2(C(=O)OC)CC3C=CC2N1C3    UACC-62 melanoma           TGI  > 100 µM
 4  Oc1c(C(Nc2ccccn2)c2ccccc2)ccc2cccnc12 (configuration not stated)    UACC-62 melanoma           TGI   22.2 µM
 5  Cc1ccc(C)n1-c1ccccc1C1C=Cn2c(=O)oc3c(OC(C)C)c(OC(C)C)c(O)c1c32 (configuration not stated)    UACC-62 melanoma           TGI  > 100 µM
 6  Cc1cc(N(CCC#N)S(=O)(=O)c2ccccc2)ccc1C=Nc1ccc(C(=O)O)cc1    UACC-62 melanoma           TGI   37.1 µM
 7  Clc1ccc(C2SCc3nc4ccccc4n32)cc1 (configuration not stated)    UACC-62 melanoma           TGI   43.6 µM
 8  CC1(C)CCC2=C(O1)c1ccccc1C(=Nc1ccc([N+](=O)[O-])cc1)C2=O    UACC-62 melanoma           TGI   30.9 µM
 9  CC(NNC(=S)N1CCN(c2ccccn2)CC1)c1nccc2ccccc12 (configuration not stated)    UACC-62 melanoma           TGI   2.35 µM
10  CN1CCN(Cc2ccc(NC(=O)c3cncc(C#Cc4ccc(N)nc4)c3)cc2C(F)(F)F)CC1    UACC-62 melanoma           TGI   3.48 µM
11  Cc1ccc(/C=c2\c(=O)[nH]c3nc4ccccc4c(=O)n23)cc1    UACC-62 melanoma           TGI  > 100 µM
12            Nc1ccc(C#Cc2ccccc2C#CCCCCO)cc1    UACC-62 melanoma           TGI   28.3 µM
13  COCC(C#N)NC1CC(OC2CC(O)(C(=O)CO)Cc3c(O)c4c(c(O)c32)C(=O)c2c(OC)cccc2C4=O)OC(C)C1O (configuration not stated)    UACC-62 melanoma           TGI   0.21 µM
14  CC1C(c2ccccc2)N(C)C(c2ccccc2)C(C)C1(O)c1ccccc1 (configuration not stated)    UACC-62 melanoma           TGI  > 100 µM
15  CC1(c2ccc(F)cc2)C2C(=O)NC(=O)C1C(=O)NC2=O (configuration not stated)    UACC-62 melanoma           TGI  > 100 µM
16   O=c1c2cccnc2oc2c(Cl)cc(-c3nn[nH]n3)cc12    UACC-62 melanoma           TGI  > 100 µM
17      CC(C)OC1=C(CC2(C)OCCO2)C(=O)C12OCCO2    UACC-62 melanoma           TGI  > 100 µM
18  O=[N+]([O-])c1ccc2c(c1)C(N1CCN(CCO)CC1)Cc1ccc(F)cc1S2 (configuration not stated)    UACC-62 melanoma           TGI   12.3 µM
19  CCOC(=O)c1ccc2nc3n(c2c1)C(c1c(F)cccc1F)SC3 (configuration not stated)    UACC-62 melanoma           TGI  > 100 µM
20  Nc1nc(-c2ccc3c(c2)/C(=C\c2cc(Br)c(O)c(Br)c2)C(=O)N3)cs1    UACC-62 melanoma           TGI   23.7 µM
21                          CSc1nnnc2ccccc12    UACC-62 melanoma           TGI  > 100 µM
22       CC(=O)C(CN1C(=O)c2ccccc2C1=O)C(C)=O    UACC-62 melanoma           TGI  > 100 µM

----------
Tested on: SK-OV-3 ovarian
Experiment: NCI tumour cell line growth inhibition, 48 h
endpointName: TGI

molecule	reading
O=S(=O)(O)c1cc(S(=O)(=O)O)c2cc(N=Nc3ccc(N=Nc4ccc(/C=C/c5ccc(N=[N+]([O-])c6ccc(/C=C/c7ccc(N=Nc8ccc(N=Nc9ccc%10cc(S(=O)(=O)O)cc(S(=O)(=O)O)c%10c9)cc8)cc7S(=O)(=O)O)c(S(=O)(=O)O)c6)cc5S(=O)(=O)O)c(S(=O)(=O)O)c4)cc3)ccc2c1	> 100 µM
O=c1oc2ccccc2c(O)c1C(c1ccc(OCc2ccccc2)cc1)c1c(O)c2ccccc2oc1=O	> 100 µM
O=C1OC(OC/C(Br)=C(\Br)COC2OC(=O)C(Cl)=C2Cl)C(Cl)=C1Cl (stereo not drawn)	43 µM

The reported measurements were obtained from PubChem BioAssay (NCI).
